System: MDA-MB-435 melanoma
Assay: NCI-60 one-dose screen, 48 h (100 = growth as untreated, 0 = no growth, -100 = all killed)
Conditions: 10 µM unless noted
About 83,000 compounds went through this panel and 20% of them were active in at least one assay; those are over-represented in the sample as a whole.
Mark Satisfied for growth under 40%, Not satisfied if at or over.

[ask] Answer whether the compound COc1ccc(-n2nc(C(=O)NCC(=O)Nc3nc4cc(OC)ccc4s3)c3ccccc3c2=O)cc1 has growth strictly less than 40%
[reply] Not satisfied

---

Test system: SK-MEL-2 melanoma
Assay: NCI-60 one-dose screen, 48 h (100 = growth as untreated, 0 = no growth, -100 = all killed)
Details: 10 µM unless noted
Compounds without any hit were thinned out: in the full panel of roughly 83,000, 20% have a hit.
Each record here notes measured growth.
Value expressed in %; do not type the unit.

Here is how some molecules turned out for growth.
- Molecule: "CCNS(=O)(=O)c1ccc(C)cc1"
  growth (%): 116
- Molecule: "Cc1cc(NC(=O)C2c3ccccc3C(=O)N(CC(C)C)C2c2cccs2)no1 (stereo unspecified)"
  growth (%): 50.7

Read the next record carefully.
[ask] Form field: reported growth of CC(C)COC(=O)NC(C)(C)C
[reply] 93.1

---

System: NCI-H460 lung
Experiment: NCI-60 one-dose screen, 48 h (100 = growth as untreated, 0 = no growth, -100 = all killed)
Conditions: 10 µM unless noted
About 83,000 compounds went through this panel and 20% of them were active in at least one assay; those are over-represented in the sample as a whole.
Readout name: growth (%)
Report as a plain number; the unit % is understood.

// solved cases for growth follow
- Compound: "C=C(C)c1ccc(/C=N/NC(N)=S)cc1"
  growth (%): 99.9
- Compound: "CCCCCCCCNC(C)C(O)c1ccc(SC(C)C)cc1 (stereo unspecified)"
  growth (%): -37.7
- Compound: "COc1cccc(/C=N/N=C(N)N)c1"
  growth (%): 111
- Compound: "Cc1ccc(S(=O)(=O)NC(CCC(=O)Nc2ccc(Cl)cc2)C(=O)Nc2ccc(Cl)cc2)cc1 (stereo unspecified)"
  growth (%): 7.89
- Compound: "Cc1cc(C)c2c(n1)sc1c(Nc3ccc(Cl)cc3Cl)ncnc12"
  growth (%): 9.44
- Compound: "FC(F)(F)C1=NNC(c2ccc3ccccc3c2)=NN1"
  growth (%): 101
- Compound: "CNC(=O)c1ccccc1Sc1ccc2c(/C=C/c3ccccn3)n[nH]c2c1"
  growth (%): 20.2
- Compound: "O=C1c2ccccc2C2N1CCC1CCc3ccccc3N12 (stereo unspecified)"
  growth (%): 104

[ask] What value of growth has been reported for the following compound? CC(=O)[C@@]1(O)[C@H](C)C[C@H]2[C@@H]3C=C(C)C4=Cc5c(cnn5-c5ccccc5)C[C@]4(C)[C@H]3[C@@H](O)C[C@@]21C
[reply] -20.5

[ask] What would you report for C#CC[C@@H]1C[C@]2(C)[C@H]3CC=C4[C@H]5[C@@H](C)[C@H](C)CC[C@]5(C(=O)NCCCN5CCN(CCCN)CC5)CC[C@@]4(C)[C@]3(C)CC[C@H]2C(C)(C)[C@H]1OC(C)=O ?
[reply] -60.7

[ask] Now consider COc1cccc(OCC(O)CN2CCN(c3ccccc3)CC2)c1 (stereo unspecified) .
[reply] 114

[ask] Ok, now Cn1nc(C(F)(F)F)cc1-c1c[nH]c(OCc2ccc(Cl)cc2)c(-c2ccc(Cl)c(C(F)(F)F)c2)c1=O
[reply] 2.53

[ask] Also need Cc1ccc(-c2cnc3sc4ccc(Cl)cc4n23)cc1 , thanks.
[reply] 104

[ask] Check C=CCn1c(C)nc2cc(Nc3nc(Nc4ccc5nc(C)n(CC=C)c5c4)nc4ccccc34)ccc21 too.
[reply] 117

[ask] Moving on to the next compound: CC1=NC(c2ccc(Cl)cc2)C2=C(N1)/C(=C/c1ccc(Cl)cc1)CCC2 (stereo unspecified)
[reply] 99.4

[ask] Please answer likewise for NC(N)=N/N=C\c1ccc(OCc2ccccc2)cc1
[reply] 96.4

[ask] Another compound to look at: O=NN(CC(=O)NNc1ccccc1)CC(=O)NNc1ccccc1
[reply] 66.2

---

System: UO-31 renal
Experiment: NCI-60 one-dose screen, 48 h (100 = growth as untreated, 0 = no growth, -100 = all killed)
Details: 10 µM unless noted
This is part of a sample that, as a whole, favours compounds with a hit. Of some 83,000 tested, about 20% had one in any assay. The source made the active and inactive calls. Rule for the calls: active = growth percent below 10; inactive = the rest.
In this section, each of the molecules is paired with its reported growth.

- Molecule: "Cc1ccccc1CNc1ncnc2[nH]ncc12"
  Target desc: "UO-31 renal"
  growth: "37% (inactive)"

[ask] Reported growth for UO-31 renal, given Nc1nc2c(c3ncccc13)C(c1ccccc1)Cc1ncccc1-2 (configuration not stated) ?
[reply] 61.1% (inactive)

[ask] // next record CNCc1ccccc1CN(CC(=O)Nc1ccc2c(c1)CC1(C2)C(=O)Nc2ncccc21)C(=O)C(C)(C)C (configuration not stated)
[reply] 88.1% (inactive)

[ask] And what about the molecule COc1ccc([C@@H]2[C@@H](Cl)C(=O)N2c2cc(OC)c(OC)c(OC)c2)cc1C ?
[reply] 38.8% (inactive)

[ask] COc1ccc(-c2nsc3c2NC(=O)CC3c2ccc3c(c2)OCO3)cc1 (configuration not stated) ?
[reply] 33.6% (inactive)

[ask] Further, for O=C(c1ccccc1)N(CCCCl)C(=O)N(CCCCl)C(=O)c1ccccc1 ?
[reply] 73.4% (inactive)

[ask] Next: Brc1ccccc1Cn1c(-c2cncs2)nc2ccccc21
[reply] 44.9% (inactive)

[ask] Repeat for the following molecule: Cc1cc(NC(=O)C2c3ccccc3C(=O)N(CC(C)C)C2c2cccs2)no1 (configuration not stated)
[reply] -89.7% (active)

[ask] What about CC1=C(C(=O)Nc2ccc(F)cc2)C(c2ccc(C)cc2)C2=C(CC(C)(C)CC2=O)N1 (configuration not stated) ?
[reply] 63.2% (inactive)

---

Tested on: NCI-H322M lung
Experiment: NCI-60 one-dose screen, 48 h
Conditions: 10 µM unless noted
This is part of a sample that, as a whole, favours compounds with a hit. Of some 83,000 tested, about 20% had one in any assay. Calls of active or inactive are those of the source. Rule for the calls: active = growth percent below 10; inactive = the rest.
Mark one answer only. Choices: active, inactive

- Compound smiles: "O=C1C2=C(C(=O)c3c(O)ccc(O)c31)N(c1ccc(N3CCOCC3)nc1)Cc1ccccc1O2"
  Target desc: "NCI-H322M lung"
  Group label: "active"
- Compound smiles: "COc1ccc(C(=O)c2c(N)nc3n2CCCC3)cc1OC"
  Target desc: "NCI-H322M lung"
  Group label: "inactive"
- Compound smiles: "C=CCn1c(SCC(=O)Nc2ccc(/C(C)=N\\O)cc2)nnc1-c1cc(-c2ccccc2)nc2ccccc12"
  Target desc: "NCI-H322M lung"
  Group label: "inactive"
- Compound smiles: "Cc1cc(NC(=O)c2ccc(N)cc2)ccc1N=Nc1ccc2cc(S(=O)(=O)O)cc(S(=O)(=O)O)c2c1"
  Target desc: "NCI-H322M lung"
  Group label: "inactive"
- Compound smiles: "Cc1n(Cc2ccc3ccccc3n2)cc[n+]1Cc1ccc2ccccc2c1"
  Target desc: "NCI-H322M lung"
  Group label: "inactive"

[ask] Record request — test call for O=C(OCc1ccc2c(Cl)cc(Cl)c(O)c2n1)c1cc2ccccc2[nH]1
[reply] active

[ask] Field entry: CC(=O)c1c(C)nc(-c2cc(C)cc(Cl)c2)nc1-c1cccc(Oc2ccccc2)c1
[reply] inactive

[ask] And what about the molecule CCN(C)CCCOc1ccc(/C(=C(\C)Cc2cccc(OC)c2)c2ccc(OC(C)=O)cc2)cc1 ?
[reply] inactive

[ask] Query CCCCCCCCCCCCCCCCOc1ccc(S(=O)(=O)N(C)C)cc1[N+](=O)[O-] next
[reply] inactive

---

Tested on: UO-31 renal
Test: NCI-60 one-dose screen, 48 h (100 = growth as untreated, 0 = no growth, -100 = all killed)
Details: 10 µM unless noted
Compounds without any hit were thinned out: in the full panel of roughly 83,000, 20% have a hit.
Readout name: growth (%)
Please respond with the number in % and leave the unit unwritten.

- Molecule: "CC(C)CC(NC(=O)OCC1c2ccccc2-c2ccccc21)C(=O)O (stereo unspecified)"
  growth (%): 94.2
- Molecule: "CC(COC(=O)c1ccccc1)N1CC2CCC(C1)O2 (stereo unspecified)"
  growth (%): 86
- Molecule: "CC(C)(C)CC(C)(C)NCc1cc(C(C)(C)C)cc(CNC(C)(C)CC(C)(C)C)c1O"
  growth (%): 27.4
- Molecule: "c1ccc2c(Cc3csc4ccccc34)csc2c1"
  growth (%): 47.5
- Molecule: "Cc1ccc(CSCc2ccc(C(=O)NC3CC3)o2)cc1"
  growth (%): 74.7

[ask] Record request: growth value, item CC(C)NCCCCCNc1cc(O)cc2cccnc12
[reply] 88.4
